All figures here come from patent US20250376533A1.

Biological target: T1, cynomolgus CD40 antigen (ACROBiosystems) (cynomolgus, UniProt G7PG38 21-193)
T1 construct: Bought antigen coated on ELISA plates; construct not described
Experiment: ELISA, coated antigen
This section presents binders with their documented pEC50 values.
// scale note: pEC50 = -log10(conc_M); give the bare number

binder	pEC50
anti-CD40 monoclonal antibody 1606CD (antibody, human IgG2, kappa, V domains shown) VH: EVQLVESGGGLVQPGGSLRLSCAASGFTFSDYYMSWVRQAPGKGLEWVGFIRNKANGYTTEYAASVKGRFTISRDNSKNTLYLQMNSLRAEDTAVYYCARYGGLRQGWYFDVWGQGTLVTVSS VL: DIQMTQSPSSLSASVGDRVTITCRASQDIRNYLNWYQQKPGKAPKLLIYYTSRRDSGVPSRFSGSGSGTDYTLTISSLQPEDFATYFCQQGKTLPWTFGGGTKVEIKR	10.70

input: pEC50 lookup needed for anti-CD40 monoclonal antibody 1607CD (antibody, human IgG2, kappa, V domains shown) VH: EVQLVESGGGLVQPGGSLRLSCAASGFTFSDYYMSWVRQAPGKGLEWVGFIRNKANGYTTEYAASVKGRFTISRDNSKSTLYLQMNSLRAEDTAVYYCARYGGLKKGWYFDLWGQGTLVTVSS VL: DIQMTQSPSSLSASVGDRVTITCRASQGIRNYLNWYQQKPGKAPKLLIYYTSSLQSGVPSRFSGSGSGTDYTLTISSLQPEDFATYYCQQGINLPWTFGGGTKVEIKR , thanks.
output: 10.77

input: pEC50 lookup needed for anti-CD40 monoclonal antibody 1653CD (antibody, human IgG2, kappa, V domains shown) VH: EVQLVESGGGLVQPGGSLRLSCAASGFTFSDYYMSWVRQAPGKGLEWVGFIRNKANAYTTEYAASVKGRFTISRDNSKSTLYLQMNSLRAEDTAVYYCARYGGLKKGWYFDLWGQGTLVTVSS VL: DIQMTQSPSSLSASVGDRVTITCRASQGIRNYLNWYQQKPGKAPKLLIYYTSSLQSGVPSRFSGSGSGTDYTLTISSLQPEDFATYYCQQGINLPWTFGGGTKVEIKR , thanks.
output: 10.74
